ASSAY OVERVIEW: in vitro
CONDITION INFO: African green monkey (Cercopithecus aethiops)

# COMPOUND, CC50
rows = [
    ("C[C@@]1(O)[C@H](O)[C@@H](CO)O[C@H]1n1ccc(N)nc1=O [2′-C-methyl-cytidine, 2′-C-methylcytidine, reference compound]", "> 100 µM"),
    ("CCCCc1ccc(NC(=S)NCCc2c[nH]c3ccccc23)c(C)c1", "12 µM"),
    ("S=C(NCCc1c[nH]c2ccccc12)Nc1ccccc1Cl", "53 µM"),
    ("Nc1nc2c(ncn2COCCO)c(=O)[nH]1 [Acycloguanosine, acycloguanosine, reference compound]", "> 100 µM"),
    ("S=C(NCCc1c[nH]c2ccccc12)NCc1ccccc1", "> 100 µM"),
    ("Cc1ccc(NC(=S)NCCc2c[nH]c3ccccc23)cc1Cl", "17 µM"),
    ("S=C(NCCc1c[nH]c2ccccc12)Nc1ccc(Br)cc1", "13 µM"),
    ("FC(F)(F)c1cccc(NC(=S)NCCc2c[nH]c3ccccc23)c1", "16 µM"),
    ("Fc1cccc(NC(=S)NCCc2c[nH]c3ccccc23)c1", "60 µM"),
    ("S=C(NCCc1c[nH]c2ccccc12)Nc1cccc(Br)c1", "12 µM"),
    ("S=C(NCCc1c[nH]c2ccccc12)Nc1ccccc1", "64 µM"),
    ("Fc1ccc(NC(=S)NCCc2c[nH]c3ccccc23)cc1", "53 µM"),
    ("CCOC(=O)NC(=S)NCCc1c[nH]c2ccccc12", "> 100 µM"),
    ("S=C(NCCc1c[nH]c2ccccc12)Nc1ccc(I)cc1", "11 µM"),
    ("S=C(NCCc1ccccc1)NCCc1c[nH]c2ccccc12", "> 100 µM"),
    ("C=C(C)CNC(=S)NCCc1c[nH]c2ccccc12", "89 µM"),
    ("Cc1ccc(Cl)cc1NC(=S)NCCc1c[nH]c2ccccc12", "17 µM"),
    ("S=C(NCCc1c[nH]c2ccccc12)Nc1cccc(Cl)c1", "32 µM"),
    ("S=C(NCCc1c[nH]c2ccccc12)Nc1ccc(Cl)cc1", "55 µM"),
    ("S=C(NCCc1c[nH]c2ccccc12)Nc1ccccc1Br", "46 µM"),
    ("Fc1ccc(NC(=S)NCCc2c[nH]c3ccccc23)cc1Cl", "32 µM"),
    ("O=C(NC(=S)NCCc1c[nH]c2ccccc12)c1ccccc1", "29 µM"),
    ("COc1c(C)c2c(c(O)c1C/C=C(\\C)CCC(=O)O)C(=O)OC2 [Mycophenolic acid, mycophenolic acid, reference compound]", "13 µM"),
    ("S=C(NCCc1c[nH]c2ccccc12)Nc1ccc(Cl)c(Cl)c1", "13 µM"),
    ("Fc1ccccc1NC(=S)NCCc1c[nH]c2ccccc12", "73 µM"),
    ("C=CCNC(=S)NCCc1c[nH]c2ccccc12", "> 100 µM"),
    ("S=C(NCCc1c[nH]c2ccccc12)NC1CCCCC1", "14 µM"),
]

Every entry's value here was drawn from paper PMC6222422.
